testedTarget: human TLR7 (Homo sapiens, UniProt Q9NYK1)
Sequence (Q9NYK1 27-1049): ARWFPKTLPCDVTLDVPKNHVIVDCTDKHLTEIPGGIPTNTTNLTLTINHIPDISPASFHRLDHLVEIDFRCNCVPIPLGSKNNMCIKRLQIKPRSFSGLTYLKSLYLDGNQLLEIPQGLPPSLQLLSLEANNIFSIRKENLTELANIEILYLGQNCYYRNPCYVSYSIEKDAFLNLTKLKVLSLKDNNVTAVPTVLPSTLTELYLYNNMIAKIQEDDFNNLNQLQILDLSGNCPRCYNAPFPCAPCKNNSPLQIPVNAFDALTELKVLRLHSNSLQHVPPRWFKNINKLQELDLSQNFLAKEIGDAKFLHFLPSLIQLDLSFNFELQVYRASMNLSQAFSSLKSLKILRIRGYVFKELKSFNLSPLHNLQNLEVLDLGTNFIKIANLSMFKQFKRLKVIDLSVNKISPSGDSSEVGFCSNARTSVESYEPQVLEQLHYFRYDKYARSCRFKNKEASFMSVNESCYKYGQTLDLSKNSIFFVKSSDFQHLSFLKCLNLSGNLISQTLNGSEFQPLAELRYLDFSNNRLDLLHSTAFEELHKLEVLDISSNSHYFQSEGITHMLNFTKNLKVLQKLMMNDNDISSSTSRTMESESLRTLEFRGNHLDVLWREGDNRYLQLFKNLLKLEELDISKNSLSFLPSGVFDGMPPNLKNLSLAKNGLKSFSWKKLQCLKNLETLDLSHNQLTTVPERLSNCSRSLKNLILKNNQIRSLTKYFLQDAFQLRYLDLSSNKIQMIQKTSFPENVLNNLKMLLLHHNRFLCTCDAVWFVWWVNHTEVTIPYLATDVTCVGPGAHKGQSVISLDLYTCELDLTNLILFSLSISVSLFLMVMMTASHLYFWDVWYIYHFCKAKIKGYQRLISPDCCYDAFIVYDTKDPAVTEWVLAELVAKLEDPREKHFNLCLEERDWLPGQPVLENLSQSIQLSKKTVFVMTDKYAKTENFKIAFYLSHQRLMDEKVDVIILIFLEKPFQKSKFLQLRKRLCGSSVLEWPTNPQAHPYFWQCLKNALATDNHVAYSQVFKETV
protocolDescription: HEK293 NFKB reporter assay, human TLR7
testParameters: HEK293 NFKB reporter cells expressing human TLR7; read-out: HEK293 hTLR7 EC50
endpoint: EC50 (µM)

Here are 2 compounds together with their reported answers.
Param readout = EC50; param system = human TLR7 (Homo sapiens, UniProt Q9NYK1); param query = CCCN(OC(C)C)C(=O)C1=Cc2sc(CC3CN(C(=O)OC(C)(C)C)C3)cc2N=C(N)C1 ; response: value
0.362

Given the entry CCCN(OCC)C(=O)C1=Cc2sc(CN3CCC(N)C3)cc2N=C(N)C1 (stereo not drawn) , what EC50 was observed with human TLR7 (Homo sapiens, UniProt Q9NYK1)?
3.33

a = CCCN(Cc1ccc(CN(C)C)cc1)C(=O)C1=Cc2sc(CCCCCN)cc2N=C(N)C1
b = CCCN(CCCNC(=O)OC1CCC1)C(=O)C1=Cc2sc(CC3CCN(C(=O)OC(C)(C)C)CC3)cc2N=C(N)C1
// compare measured EC50, left a , right b , return larger Write down the label of the entry you select.
a

Data origin, for the record: patent US11654199B2
